- target entity: T1, HLT-iASPP Ank-SH3 (human, UniProt Q8WUF5 603-828)
- T1 construct: iASPP (human), four ankyrin repeats and SH3 domain, residues 603-828, Swiss-Prot Q8WUF5; Detected on the arrays by its His tag (anti His HRP antibody); source: E. coli HMS 174, purified (Nickel Sepharose, size exclusion chromatography); not shown: HLT (His tag, lipoyl domain, TEV protease cleavage site), N-terminal, kept
- T1 sequence (looked up): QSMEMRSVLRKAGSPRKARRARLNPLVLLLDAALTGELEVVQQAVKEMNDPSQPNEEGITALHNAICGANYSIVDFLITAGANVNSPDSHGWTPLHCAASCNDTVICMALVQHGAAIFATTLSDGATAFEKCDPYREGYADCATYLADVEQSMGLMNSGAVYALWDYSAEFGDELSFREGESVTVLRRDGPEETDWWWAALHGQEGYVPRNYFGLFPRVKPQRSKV
- assay: peptide or protein array; CelluSpots array of 79 partly overlapping 15-residue iASPP Pro peptides on cellulose; 5 uM HLT-iASPP Ank-SH3 in 20 mM phosphate pH 7.0, ionic strength 150 mM, 5 mM βME, 10% glycerol, 2.5% skimmed milk; 4 °C overnight; detected with anti His HRP antibody
- condition: both partners purified
cellulose membrane = C-terminus attached to a cellulose membrane (CelluSpots array) through an amide bond
measurement label: binding result

Recorded binding result, per entry:
- binder: "Ac-VARPLSPTRLQPALP-{cellulose membrane} (also: C-terminus bound to cellulose membrane via amide, iASPP (human) residues 484-498; source: synthetic peptide on CelluSpots array (INTAVIS)) [iASPP Pro array peptide 484-498 (spot C19)]"
  binding result: "binds"
- binder: "Ac-GAGSSLGRAPSPRPG-{cellulose membrane (amide bond)} (also: C-terminus bound to cellulose membrane via amide, iASPP (human) residues 148-162; source: synthetic peptide on CelluSpots array (INTAVIS)) [iASPP Pro array peptide 148-162 (spot B1)]"
  binding result: "binds"
- binder: "Ac-SMEMRSVLRKAGSPR-{cellulose membrane} (also: C-terminus bound to cellulose membrane via amide, iASPP (human) residues 604-618; also called iASPP 604-618; source: synthetic peptide on CelluSpots array (INTAVIS)) [iASPP Pro array peptide 604-618 (spot D11)]"
  binding result: "binds"
- binder: "Ac-NAFWEHGASRAMLPG-{cellulose membrane (amide bond)} (also: C-terminus bound to cellulose membrane via amide, iASPP (human) residues 380-394; source: synthetic peptide on CelluSpots array (INTAVIS)) [iASPP Pro array peptide 380-394 (spot C6)]"
  binding result: "binds"
- binder: "Ac-GTLPRSWQPVSRIPM-{cellulose membrane (amide bond)} (also: C-terminus bound to cellulose membrane via amide, iASPP (human) residues 340-354; source: synthetic peptide on CelluSpots array (INTAVIS)) [iASPP Pro array peptide 340-354 (spot C1)]"
  binding result: "binds"

The binder listed as Ac-TLPRNYKVSPLASDR-{cellulose membrane (amide bond)} (also: C-terminus bound to cellulose membrane via amide, iASPP (human) residues 308-322; source: synthetic peptide on CelluSpots array (INTAVIS)) [iASPP Pro array peptide 308-322 (spot B21)] has a reported binding result of binds

Reference source for all entries: paper PMC4486954
